# assay-method-text: Effect of food on oral absorption of IVa in dogs after Iab or IVa capsules
# Format: in vivo, dog
# run-parameters: dog, in vivo, po, 20 mg/kg, dogs, IVa Clinical Form Capsules, Fasting

compound-structure	Cmax [nM]
COc1ncc(OC)c2c(C(=O)C(=O)N3CCN(C(=O)c4ccccc4)CC3)c[nH]c12	1200

====

# assay-method-text: IV and oral rat PK (MAP) studies A, B, C of phosphate prodrugs and parent studies A1, B1, C1
# Assay type: in vivo, Sprague-Dawley rats
# run-parameters: male, Sprague-Dawley, rat, plasma, 1 mg/kg; rats, historic, parent IV 1 mpk; read-out: Vss i.v.
Recorded Vd for the following compounds

compound	Vd, L/kg
COc1ncc(OC)c2c(C(=O)C(=O)N3CCN(C(=O)c4ccccc4)CC3)c[nH]c12 [IVa]	1.4
O=C(C(=O)N1CCN(C(=O)c2ccccc2)CC1)c1c[nH]c2c(-n3ccnn3)ncc(F)c12 [IVb]	0.49
COc1cnc(-n2cnc(C)n2)c2[nH]cc(C(=O)C(=O)N3CCN(C(=O)c4ccccc4)CC3)c12 [IVc]	0.4

FYI, the data here is from patent US20150315218A1.
